I'd appreciate it if you could supply normalized growth values for the items below.
test: chemical genetic growth profiling, strain panel (AID 1159580);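 further: tested at 20 µM; growth read once vehicle control cultures reached saturation at 30 °C; 1 = growth at the plate median or of vehicle wells; lower values mean less growth of the strain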; details: S. cerevisiae deletion strains, growth OD, locus YDR001C, strain nth1, active compounds read low
The whole screen tested about 5,500 compounds, of which about 2,000 (36%) were called active. About 18% were inconclusive and are not listed. Some of the results follow.
One number for each entry.

Examples with answers:
compound	normalized growth
O=C1CCc2cc(OCCCCc3nnnn3C3CCCCC3)ccc2N1	0.998
CC(=O)OCC(=O)[C@@]1(O)CCC2C3CC[C@@H]4C[C@H](O)CC[C@]4(C)C3C(=O)C[C@@]21C (some centres not stated)	1.01
CC1=CCc2c(cc3oc(C)cc(=O)c3c2O)OC1	0.949
CCN(CC)CCNc1ccc(CO)c2sc3ccccc3c(=O)c12	1.01

# map each compound to its normalized growth
1. NCCc1ccc(O)cc1
2. CC(=O)N(O)CCCCCNC(=O)CCC(=O)N(O)CCCCCNC(=O)CCC(=O)N(O)CCCCCN
3. CC(C(=O)O)[C@H]1CCC2C3CC=C4C[C@@H](O)CC[C@]4(C)C3CC[C@@]21C (some centres not stated)
4. CC(=O)CC(c1ccccc1)c1c(O)c2ccccc2oc1=O (configuration not stated)
5. O=c1c(-c2ccccc2)coc2cc(O)cc(O)c12

Reply |
[0.975, 1.03, 1.04, 0.993, 1.01]

# map each compound to its normalized growth
1. O=c1c2ccccc2oc2ccccc12
2. O=c1oc2ccccc2c(O)c1Cc1c(O)c2ccccc2oc1=O

Reply |
0.953
1

# map each compound to its normalized growth
1. O=C(O)c1cc(=O)c2ccccc2o1
2. NCCc1ccc(O)c(O)c1
3. COc1cc([C@@H]2c3cc4c(cc3[C@H](O)[C@H]3COC(=O)[C@@H]23)OCO4)cc(OC)c1OC

Reply |
0.972
1
1.02

# map each compound to its normalized growth
1. CC(C)(C)C(=O)C(Oc1ccc(Cl)cc1)n1cncn1 (configuration not stated)
2. NCC(=O)CCC(=O)O
3. CC(=O)O[C@H]1C[C@@]2(C)[C@H](c3ccoc3)OC(=O)[C@H]3O[C@]32[C@@]2(C)C1[C@]1(C)C(C[C@H]2OC(C)=O)C(C)(C)[C@H](OC(C)=O)C[C@@H]1OC(C)=O (some centres not stated)

Reply |
[0.221, 0.997, 0.989]
